Value source: PubChem BioAssay AID1159580

# experiment notes: chemical genetic growth profiling, strain panel (AID 1159580);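 note: tested at 20 µM; growth read once vehicle control cultures reached saturation at 30 °C; 1 = growth at the plate median or of vehicle wells; lower values mean less growth of the strain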
# experimental context: S. cerevisiae deletion strains, growth OD, locus YBL105C, strain PKC1, hits give low values
Screen size: about 5,500 compounds; about 2,000 (36%) were called active. Roughly 18% stayed inconclusive and do not appear here. This is one part of the list.
Kindly supply the reported normalized growth values for the records listed here.
Answers are plain numbers.

{"compound": "N/C(=N/OCc1c(F)cccc1Cl)c1ccc(Cl)cc1", "recorded metric": "normalized growth", "recorded value": 0.922}

Would you be so kind as to report normalized growth for each listed record?
1. COc1cc(C2CC(=S)Nc3ccccc3S2)cc(OC)c1OC (configuration not stated)
2. CC(C)c1cccc(C(C)C)c1OC(=O)NC(=O)c1c(Cl)cccc1Cl
3. CC(C)Sc1c(Cl)cccc1NC(=O)Nc1cccc(C(F)(F)F)c1
4. Cc1cc2nc3c(Cl)c(O)c4ccccc4c3nc2cc1C
5. CCOC(=O)C(O)(c1ccc(NC(=O)c2ccc(Cl)c(Cl)c2)cc1)C(F)(F)F (configuration not stated)

[A]
1: 0.986; 2: 0.984; 3: 0.977; 4: 0.961; 5: 0.988

Would you be so kind as to report normalized growth for each listed record?
1. CCOC(=O)c1cnc(-c2ccccn2)[nH]c1=O
2. CC1SC(c2cccnc2)N(c2ccc(F)cc2F)C1=O (configuration not stated)
3. O=[N+]([O-])c1ccc(Sc2ccccc2)cc1O

[A]
1: 0.955; 2: 0.987; 3: 0.925

Would you be so kind as to report normalized growth for each listed record?
1. CC(C)OC(=O)Nc1cc(Cl)cc(Cl)c1
2. O=C(/C=C/c1ccc(Cl)cc1)Nc1cccc(Cl)c1
3. S=C(NCCc1csc2ccccc12)Nc1ccc(Cl)cc1
4. O=S(=O)(Nc1cc(C(F)(F)F)cc(C(F)(F)F)c1)c1ccc(Cl)s1

[A]
1. 0.97
2. 0.948
3. 0.945
4. 0.921

Would you be so kind as to report normalized growth for each listed record?
1. FC(F)(F)c1ccncc1-c1nc(-c2ccc(Cl)cc2)cs1
2. Cc1cc(C)c2cc(C(=O)NCCNc3ccc(C(F)(F)F)cn3)[nH]c2c1
3. COC(=S)Nc1cc(Cl)cc(Cl)c1

[A]
1: 0.984; 2: 0.971; 3: 0.94

[Q] Identify measured normalized growth corresponding to O=C(Nc1ccc(F)cc1F)c1cc(Cl)ccc1O
[A] 0.933
